Target: HIV-1 YU-2 gp120 (HIV-1 (YU-2), UniProt P35961)
Experiment: SPR
pIC50: −log10 of the molar value.

Binder | pIC50
Fab m18 S64A (HCDR2) (Fab, V domains shown) VH: VQLLESGPGVVKPSETLSLTCTVSGASVNNYYWTWVRQPPGKGLEWIGNVYDSGDTNYNPSLASRLSLSMDTSKNQFSLRLSSVTAADTATYYCARYHRHFIRGPLSFDYWGRGTLVTVSS VL: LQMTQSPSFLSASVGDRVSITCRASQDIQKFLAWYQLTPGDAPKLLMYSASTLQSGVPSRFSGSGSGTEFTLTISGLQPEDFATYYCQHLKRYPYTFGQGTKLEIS | < 6.00
Fab m18 D53A (HCDR2) (Fab, V domains shown) VH: VQLLESGPGVVKPSETLSLTCTVSGASVNNYYWTWVRQPPGKGLEWIGNVYASGDTNYNPSLSSRLSLSMDTSKNQFSLRLSSVTAADTATYYCARYHRHFIRGPLSFDYWGRGTLVTVSS VL: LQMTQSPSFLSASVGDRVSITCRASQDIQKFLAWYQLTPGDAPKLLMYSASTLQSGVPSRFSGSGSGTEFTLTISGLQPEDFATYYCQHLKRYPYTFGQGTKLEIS | < 6.30
Fab m18 S62A (HCDR2) (Fab, V domains shown) VH: VQLLESGPGVVKPSETLSLTCTVSGASVNNYYWTWVRQPPGKGLEWIGNVYDSGDTNYNPALSSRLSLSMDTSKNQFSLRLSSVTAADTATYYCARYHRHFIRGPLSFDYWGRGTLVTVSS VL: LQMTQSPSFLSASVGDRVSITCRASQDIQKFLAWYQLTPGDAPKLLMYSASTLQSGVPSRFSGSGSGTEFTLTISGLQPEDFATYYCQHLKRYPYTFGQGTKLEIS | < 6.00
Fab m18 T53A (LCDR2) (Fab, V domains shown) VH: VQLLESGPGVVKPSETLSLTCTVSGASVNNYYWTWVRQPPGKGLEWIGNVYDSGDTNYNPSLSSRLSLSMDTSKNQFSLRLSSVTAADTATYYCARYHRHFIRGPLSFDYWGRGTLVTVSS VL: LQMTQSPSFLSASVGDRVSITCRASQDIQKFLAWYQLTPGDAPKLLMYSASALQSGVPSRFSGSGSGTEFTLTISGLQPEDFATYYCQHLKRYPYTFGQGTKLEIS | < 6.30
Fab m18 Y33F (HCDR1) (Fab, V domains shown) VH: VQLLESGPGVVKPSETLSLTCTVSGASVNNYFWTWVRQPPGKGLEWIGNVYDSGDTNYNPSLSSRLSLSMDTSKNQFSLRLSSVTAADTATYYCARYHRHFIRGPLSFDYWGRGTLVTVSS VL: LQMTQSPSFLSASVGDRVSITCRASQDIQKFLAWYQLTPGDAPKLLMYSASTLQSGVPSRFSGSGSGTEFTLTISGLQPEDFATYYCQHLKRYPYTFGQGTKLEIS | < 6.00
